B1: MAGEA6 (parent)
chain: KISGGPRISYPLLHEWALREGEE

Variants of: B1
TEST_SUMMARY: protein stability index of a GFP-peptide fusion (GPS, HEK-293T) (PSI 1-6); higher = more stable;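 also: lentivirally expressed fusions sorted by FACS into six bins by GFP to DsRed ratio, PSI derived from sequencing read proportions per bin multiplied by bin number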
PARTICULARS: c terminus: native
MEASUREMENT_LABEL: protein stability index
One number for each entry.

Use the examples below as a reference point.
Return protein stability index for the following variant: R19C
2.87

Return protein stability index for the following variant: I2C
2.55

Return protein stability index for the following variant: E23I
1.74

Return protein stability index for the following variant: G5F
2.74

Alright, here's another variant for you.
Return protein stability index for the following variant: E23Y
2.56

# credit: the supplement of paper PMC10567573
